- TARGET OF ASSAY: Human recombinant MMP-14 (Homo sapiens, UniProt P50281)
- Construct: The catalytic domain enzyme was expressed in E. coli inclusion bodies, solubilized in urea; made in house
- ASSAY METHOD TEXT: In vitro MMP inhibition analysis (fluorogenic peptide substrate cleavage), Ki
- Type: biochemical
- ASSAY SETUP: Table 1
OUTCOME MEASURE: Ki (nM)

Here is how some compounds turned out for Ki.
- CHEMICAL SMILES: "CCN1CCC(C(=O)NO)(S(=O)(=O)c2ccc(-c3ccc(CCC(C)(F)F)cc3)cc2)CC1"
  UNIT ABBREV: "nM"
  VAL: 570
- CHEMICAL SMILES: "COCCN1CCC(C(=O)NO)(S(=O)(=O)c2ccc(-c3ccc(CCC(C)(F)F)cn3)cc2)CC1"
  UNIT ABBREV: "nM"
  VAL: 831

P: O=C(NO)C1(S(=O)(=O)c2ccc(-c3ccc(OC(F)(F)C(F)F)cc3)cc2)CCOCC1
Q: CC(F)(F)CCc1cnc(-c2ccc(S(=O)(=O)C3(C(=O)NO)CCN(C4CC4)CC3)cc2)cn1
Which of the two items, P and Q , has the greater recorded Ki? Answer = label.
Q
(Q: 4260 nM, P: 235 nM)
